- system.name: 5-hydroxytryptamine receptor 1A (Rattus norvegicus)
- Sequence (P19327 whole entry): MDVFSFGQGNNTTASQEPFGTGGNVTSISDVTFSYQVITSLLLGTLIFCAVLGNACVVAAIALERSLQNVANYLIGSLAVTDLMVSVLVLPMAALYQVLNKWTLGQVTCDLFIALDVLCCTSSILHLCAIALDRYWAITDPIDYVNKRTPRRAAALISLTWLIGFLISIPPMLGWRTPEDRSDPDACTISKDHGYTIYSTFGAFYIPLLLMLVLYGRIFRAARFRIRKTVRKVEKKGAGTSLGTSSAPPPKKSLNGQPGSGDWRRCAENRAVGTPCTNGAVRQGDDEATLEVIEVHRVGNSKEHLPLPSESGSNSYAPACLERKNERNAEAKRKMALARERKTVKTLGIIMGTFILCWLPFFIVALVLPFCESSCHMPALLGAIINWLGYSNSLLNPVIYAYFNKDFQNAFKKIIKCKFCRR
- protocol.details: Displacement of [3H]8-OH-DPAT from rat hippocampus 5-HT1A receptor incubated for 20 mins by microbeta plate reader based method
We begin with a simple list: items and their reported pKi.
The quantity pKi is defined as the negative base-10 logarithm of the molar concentration.

Give recorded pKi with 5-hydroxytryptamine receptor 1A (Rattus norvegicus) for the following molecule: "Cn1c(=O)c2c(nc3n(CCCCN4CCN(c5ccccc5O)CC4)c(-c4ccccc4)cn23)n(C)c1=O"
8.22

Give recorded pKi with 5-hydroxytryptamine receptor 1A (Rattus norvegicus) for the following molecule: "Cn1c(=O)c2c(nc3n(CCCCN4CCN(c5ccc(Cl)cc5)CC4)c(-c4ccccc4)cn23)n(C)c1=O"
7.34

Give recorded pKi with 5-hydroxytryptamine receptor 1A (Rattus norvegicus) for the following molecule: "Cn1c(=O)c2c(nc3n(CCCCCN4CCN(c5ccccc5O)CC4)ccn23)n(C)c1=O"
8.15

More entries:
Give recorded pKi with 5-hydroxytryptamine receptor 1A (Rattus norvegicus) for the following molecule: "Cn1c(=O)c2c(nc3n(CCCCCN4CCN(c5ccc(Cl)cc5)CC4)c(=O)ccn23)n(C)c1=O"
7.10

Give recorded pKi with 5-hydroxytryptamine receptor 1A (Rattus norvegicus) for the following molecule: "Cc1cn2c3c(=O)n(C)c(=O)n(C)c3nc2n1CCCCN1CCN(c2ccccc2O)CC1"
8.70
